The reported measurements were obtained from patent US10266526B2.

Give measured IC50 for each item. Keep answers brief.
# tgt: SMYD3 (Homo sapiens (Human))
# Sequence (Q9H7B4 whole entry): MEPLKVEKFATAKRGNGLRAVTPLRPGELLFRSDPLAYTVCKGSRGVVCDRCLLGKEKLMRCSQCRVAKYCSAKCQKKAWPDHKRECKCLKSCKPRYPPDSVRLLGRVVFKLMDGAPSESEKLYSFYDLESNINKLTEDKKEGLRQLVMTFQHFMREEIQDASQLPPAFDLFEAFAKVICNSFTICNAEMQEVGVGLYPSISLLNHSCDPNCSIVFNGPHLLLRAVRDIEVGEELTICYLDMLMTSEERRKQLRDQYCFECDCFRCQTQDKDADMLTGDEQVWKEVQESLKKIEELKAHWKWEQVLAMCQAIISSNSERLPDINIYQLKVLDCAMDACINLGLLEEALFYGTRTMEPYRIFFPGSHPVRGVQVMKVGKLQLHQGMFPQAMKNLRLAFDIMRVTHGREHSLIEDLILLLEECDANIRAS
# protocol: SMYD3 biochemical assay (SMYD3 enzyme assay on MEKK2 protein substrate, 3H-SAM scintillation proximity assay)
# experimental_context: read-out: SMYD3 Biochem IC50

N[C@H]1CC[C@@H](S(=O)(=O)N2[C@@H]3CC[C@H]2C[C@@H](NC(=O)c2ccc4c(c2)CC(=O)N4)C3)CC1; 0.00233 µM
CC(NC(=O)[C@H]1Cc2ccccc2CN1)C1CCN(C(=O)[C@H](C)N)CC1 (some centres unmarked); 48.1 µM
NCCC(=O)N[C@H]1CC[C@H](NC(=O)Cn2ccnc2)CC1; > 100 µM
NCCC(=O)N[C@H]1CC[C@H](NC(=O)c2cc3ccccc3[nH]2)CC1; > 100 µM
N[C@H]1CC[C@H](NC(=O)c2ccc3[nH]ccc3c2)CC1; > 100 µM

Need IC50 for each of these compounds.
1. CC(NC(=O)c1ccc2cc[nH]c2c1)C1CCN(C(=O)[C@H](C)N)CC1 (some centres unmarked)
2. COc1cnc(C(=O)N[C@H]2CC[C@H](N)CC2)cn1
3. CC(NC(=O)c1cc2ccccc2n1C)C1CCN(C(=O)[C@H](C)N)CC1 (some centres unmarked)

(A)
1: 12.3 µM; 2: > 100 µM; 3: > 100 µM
